This collection of values is drawn from PubChem BioAssay (NCI).

# Test system: UACC-62 melanoma
# Protocol notes: NCI tumour cell line growth inhibition, 48 h
Readout name: TGI (µM)
Response body: numeric value in µM, unit text excluded.

CCCCCCCC(=O)Nc1nc2[nH]c(CN3CCN(Cc4cccc(I)c4)CC3)c(CN3CCN(Cc4cccc(I)c4)CC3)c2c(=O)[nH]1 : 1.66
CCCCCCCCCCNC(=S)OC : 65
CCCC(=O)Oc1c2ccsc2c(OC(=O)CCC)c2ccsc12 : 2.07
C[n+]1c2ccccc2n2c3ccccc3c(NCc3ccco3)c(C#N)c21 : 11.7

Lab note: next compound to report on.
Give the measured TGI of "C/C(COc1ccc2oc(-c3ccccc3)cc(=O)c2c1)=N\O" .
81.4
